# study_system: human ACVR2A (human, UniProt P27037 20-135, limits assumed); further: test concentration or dose not given here
# Sequence (P27037 20-135 limits assumed): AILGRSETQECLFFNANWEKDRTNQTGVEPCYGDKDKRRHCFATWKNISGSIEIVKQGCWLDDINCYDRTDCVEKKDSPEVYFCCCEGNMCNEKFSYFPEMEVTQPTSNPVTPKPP
# assay_summary: ELISA
# Description: The binding of ACVR2A-specific monoclonal antibodies to human ACVR2A, mouse ACVR2A, biotinylated goat anti-human kappa light chain (positive control) and human Fc (negative control) were determined by ELISA.
Would you mind labelling by optical density? At or over 3 OD is yes, under is no.

INSERT INTO assay_data (binder, answer_label) VALUES
  ('374_G07 (antibody, V domains shown, VH/VL only) VH: EVQLLESGGGLVQPGGSLRLSCAASGFTFSSYSMNWVRQAPGKGLEWVSGINYNSGYKSYADSVKGRFTISRDNSKNTLYLQMNSLRAEDTAVYYCARSANWHDTALDYWGQGTLVTVSS VL: DIQMTQSPSSLSASVGDRVTITCRASQSIISYLNWYQQKPGKAPKLLIYAATSRASGVPSRFSGSGSGTDFTLTISSLQPEDFATYYCQQSYDSPLTFGGGTKVEIK', 'yes'),
  ('369_A10 (antibody, V domains shown, VH/VL only) VH: EVQLLESGGGLVQPGGSLRLSCAASGFTFDSYSMNWVRQAPGKGLEWVAGINYNSGYTGYADSVKGRFTISRDNSKNTLYLQMNSLRAEDTAVYYCARSATWHDTHLDYWGQGTLVTVSS VL: DIQMTQSPSSLSASVGDRVTITCRASQSILSYLNWYQQKPGKAPKLLIYAATSRASGVPSRFSGSGSGTDFTLTISSLQPEDFATYYCQQSYELPLTFGGGTKVEIK', 'yes');

QUERY: Please check the record 369_G07 (antibody, V domains shown, VH/VL only) VH: EVQLLESGGGLVQPGGSLRLSCAASGFTFSSYSMNWVRQAPGKGLEWVAGINYNGGYTSYADSVKGRFTISRDNSKNTLYLQMNSLRAEDTAVYYCARSATWHDTHLDYWGQGTLVTVSS VL: DIQMTQSPSSLSASVGDRVTITCRASQSILTYVNWYQQKPGKAPKLVIYAATSRASGVPSRFSGSGSGTDFTLTISSLQPEDFATYYCQQSYDNPLTFGGGTKVEIK and state if its optical density is at or above 3 OD.
RESULT: yes

QUERY: Please check the record 366_H05 (antibody, V domains shown, VH/VL only) VH: EVQLLESGGGLVQPGGSLRLSCAASGFTFDSYGMHWVRQAPGKGLEWVASINYNGGYTSYADSVKGRFTISRDNSKNTLYLQMNSLRAEDTAVYYCARSATWHDTHLDYWGQGTLVTVSS VL: DIQMTQSPSSLSASVGDRVTITCRASQSILSYVNWYQQKPGKAPKLLIYAATSLASGVPSRFSGSGSGTDFTLTISSLQPEDFATYYCQQSYDLPLTFGGGTKVEIK and state if its optical density is at or above 3 OD.
RESULT: no

QUERY: Please check the record 373_E03 (antibody, V domains shown, VH/VL only) VH: EVQLLESGGGLVQPGGSLRLSCAASGFTFDSYGMNWVRQAPGKGLEWVSNINYNGGYTGYADSVKGRFTISRDNSKNTLYLQMNSLRAEDTAVYYCARSATWHDTALDYWGQGTLVTVSS VL: DIQMTQSPSSLSASVGDRVTITCRASQSILSYVNWYQQKPGKAPKLVIYAATSRASGVPSRFSGSGSGTDFTLTISSLQPEDFATYYCQQSYDLPLTFGGGTKVEIK and state if its optical density is at or above 3 OD.
RESULT: yes

QUERY: Please check the record 373_C09 (antibody, V domains shown, VH/VL only) VH: EVQLLESGGGLVQPGGSLRLSCAASGFTFDSYSMNWVRQAPGKGLEWVAGINYNSGYKSYADSVKGRFTISRDNSKNTLYLQMNSLRAEDTAVYYCARSATWHDTHLDYWGQGTLVTVSS VL: DIQMTQSPSSLSASVGDRVTITCRASQSILTYLNWYQQKPGKAPKLVIYAATSRASGVPSRFSGSGSGTDFTLTISSLQPEDFATYYCQQSYELPLTFGGGTKVEIK and state if its optical density is at or above 3 OD.
RESULT: yes

Where do the numbers come from? From patent US20210380703A1.
